METHOD NOTES: qHTS assay to identify small molecule agonists of the estrogen receptor alpha (ER-alpha) signaling pathway in the presence of an antagonist - cell viability counter screen (AID 1259386);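 further: cells exposed to compounds for 22 h at 37 °C before the viability read; nearly all actives have a fitted effect of over 30% in size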
STATED CONDITIONS: VM7Luc4E2 viability, CellTiter-Fluor fluorescence, 22 h; series mostly up to 92.4 µM
Results filed as inconclusive are left out. Activity calls are given as the source filed them. The call rests on the fitted dose curve; in most records, active means well fitted cell-killing curve with a large enough effect in the repeat runs; inconclusive means weak or mixed curves, or effect the other way; inactive means no such curve, though single readings can be large or run the other way.
Response enum: label 1 = active, label 0 = inactive

GET /call?item= NC(=O)CN1CCCC1=O returns the recorded outcome of this test. label 0

* * *

METHOD NOTES: qHTS assay for small molecules that induce genotoxicity in human embryonic kidney cells expressing luciferase-tagged ATAD5 (AID 651632); further: nearly all actives have a fitted effect of over 15% in size
STATED CONDITIONS: HEK293T ATAD5-luciferase induction, 16 h; series mostly up to 83.3 µM
Inconclusive results are not listed. Activity calls are given as the source filed them. Calls follow the shape of the dose curve; as a rule, active = well fitted activation curve with a large enough effect in the repeat runs; inconclusive = weak or mixed curves; inactive = no such curve, though single readings can be large or run the other way.

>  <GIVEN SMILES>
NC(=O)CN1CCCC1=O

>  <outcome>
inactive

$$$$
>  <GIVEN SMILES>
COP(=S)(OC)Oc1ccc(S(=O)(=O)N(C)C)cc1

>  <outcome>
inactive

$$$$
>  <GIVEN SMILES>
ClCc1ccccn1

>  <outcome>
inactive

$$$$

* * *

METHOD NOTES: qHTS assay to identify small molecule antagonists of the estrogen receptor beta (ER-beta) signaling pathway - cell viability counter screen (AID 1259382);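 further: HEK293T cells carrying ER-beta-UAS-bla reporter stimulated with estradiol; nearly all actives have a fitted effect of over 55% in size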
STATED CONDITIONS: ER-beta-UAS-bla HEK293T viability, CellTiter-Glo luminescence, 16 h; series mostly up to 92.4 µM
Results filed as inconclusive are left out. Calls of active or inactive are those of the source. Calls follow the shape of the dose curve; as a rule, active = well fitted cell-killing curve with a large enough effect in the repeat runs; inconclusive = weak or mixed curves; inactive = flat fitted curve, though single readings scatter.
Response enum: true (1) for active, false (0) for inactive

Please review the following examples before continuing.
>  <COMPOUND>
CCN(CC)C(=O)C(C)Oc1cccc2ccccc12 (configuration not stated)

>  <LABEL CLASS>
false (0)

$$$$
>  <COMPOUND>
CCC1(c2ccc(N)cc2)CCC(=O)NC1=O (configuration not stated)

>  <LABEL CLASS>
false (0)

$$$$

GET /call?item= CC(C)=CC1C(C(=O)OCN2C(=O)C3=C(CCCC3)C2=O)C1(C)C (configuration not stated) returns the recorded outcome of this test. false (0)

GET /call?item= CCOC(=O)c1ccccc1N returns the recorded outcome of this test. false (0)

GET /call?item= CCOP(=S)(OCC)OP(=S)(OCC)OCC returns the recorded outcome of this test. false (0)

* * *

METHOD NOTES: A CellTox Green Cytotoxicity Assay to monitor cytotoxicity in HepG2 cells - 32 hour (AID 1224883); further: nearly all actives have a fitted effect of over 50% in size
STATED CONDITIONS: CellTox Green fluorescence; series mostly up to 76.8 µM
Inconclusive results are not listed. The source made the active and inactive calls. The call rests on the fitted dose curve; in most records, active means well fitted activation curve with a large enough effect in the repeat runs; inconclusive means weak or mixed curves; inactive means flat fitted curve, though single readings scatter.
Response enum: active, inactive

Please review the following examples before continuing.
>  <MOLECULE>
Nc1ncn[nH]1

>  <LABEL CLASS>
inactive

$$$$
>  <MOLECULE>
ClCC(Cl)CCl

>  <LABEL CLASS>
inactive

$$$$
>  <MOLECULE>
ClCc1ccccn1

>  <LABEL CLASS>
inactive

$$$$
>  <MOLECULE>
CCOS(=O)(=O)OCC

>  <LABEL CLASS>
inactive

$$$$
>  <MOLECULE>
CC(C)COC(=O)c1ccccc1C(=O)OCC(C)C

>  <LABEL CLASS>
inactive

$$$$

GET /call?item= O=[N+]([O-])/N=C1\NCCN1Cc1ccc(Cl)nc1 returns the recorded outcome of this test. inactive

GET /call?item= COc1ccc(C=O)cc1OC returns the recorded outcome of this test. inactive

GET /call?item= CN(C)c1ccccc1 returns the recorded outcome of this test. inactive

GET /call?item= O=NN1CCOCC1 returns the recorded outcome of this test. inactive

GET /call?item= COP(=S)(OC)Oc1ccc(S(=O)(=O)N(C)C)cc1 returns the recorded outcome of this test. inactive
